The reported numbers originate from the Human Domainome abundance scans (Beltran et al. 2025).

B1: KAT8 regulatory NSL complex subunit 2, residues 28 to 91; numbered along this chain, Q9H9L4 (parent)
chain: CAFTHRPCSHPRLEGQEFCIKHILEDKNAPFKQCSYISTKNGKRCPNAAPKPEKKDGVSFCAEH

Variants of: B1
runDescription: abundance fitness (aPCA) (normalised: wild type 0, dead -1); higher = more abundant; growth selection in yeast, the domain comes from the species named
measurementContext: Homo sapiens
We use -0.1 as the dividing line for abundance fitness: on or above the line is 1 (yes), below is 0 (no).

>>> answerlabel("N28T")
"1 (yes)"
>>> answerlabel("P30A")
"0 (no)"
>>> answerlabel("T39A")
"0 (no)"
>>> answerlabel("N28G")
"0 (no)"
>>> answerlabel("N47Q")
"1 (yes)"

Would you say "K32N" shows abundance fitness at minimum -0.1? 1 (yes)

Same lookup for "P30T" , please. 0 (no)
